Data provenance is the supplement of paper PMC6555819.

Tested on: THRa homodimer (NR concentration 90 nM)
Experiment: PBM binding z-score (relative to random genomic background probes); higher = stronger binding; sequences stand for … in GC…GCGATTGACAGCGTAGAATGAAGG
Would you please tag the item Yes when its PBM binding z-score is 0.9 or above, and No when it is below?

q: Would you say TCTTGCAGATCAGCAGGTTAAGAAAGCTGGCCAA shows PBM binding z-score at minimum 0.9?
a: No

q: Would you say CGTCAAAGTTGAACTAAGGTAACGTAAAGCACGC shows PBM binding z-score at minimum 0.9?
a: Yes

q: Would you say CTCGAAAGGTCGGTTGAGGTGAATATACGGATAA shows PBM binding z-score at minimum 0.9?
a: Yes

q: Would you say CCGAATGGGGCATAAGGTTACCATAAGCCAGCCC shows PBM binding z-score at minimum 0.9?
a: Yes

q: Would you say GGACCGAGGGCAAGTTGATAGCAGAGTTTGATGG shows PBM binding z-score at minimum 0.9?
a: No

q: Would you say ACTACAGGGTCACTAGGCCAGAGTAGGTACGAAT shows PBM binding z-score at minimum 0.9?
a: Yes

q: Would you say ATACCAAGGTGATCGTGAGGTCGATGATACTAAC shows PBM binding z-score at minimum 0.9?
a: Yes

---

System: LXRb homodimer (NR concentration 270 nM)
Assay: PBM binding z-score (relative to random genomic background probes); higher = stronger binding; sequences stand for … in GC…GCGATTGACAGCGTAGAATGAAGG
recorded-metric: PBM binding z-score
The answer should be a number; do not append a unit.

// below: answered sequences
>>> val("ATCTCCAGGTAAAGTTCAGTGAAAGATCGATAGA")
1.25
>>> val("CGTCCAAGGTAAAAGGTCAGTGAAGAGATGACGG")
-0.538

Sample CATACAGGGTCAGCTAGGCCATAGTAGGGACGGC , system: LXRb homodimer (NR concentration 270 nM). Its PBM binding z-score is 0.267

Sample AGTCAAATTTCAGGACGAGGTAACGTAAAGCACG , system: LXRb homodimer (NR concentration 270 nM). Its PBM binding z-score is -0.153

Sample TCTGCTAGGTCAACGATGGTCAGATAATCTGCTA , system: LXRb homodimer (NR concentration 270 nM). Its PBM binding z-score is 0.0958

Sample ATCGAAAGGTCGTGAGGTGAATATACAGAAAGGC , system: LXRb homodimer (NR concentration 270 nM). Its PBM binding z-score is 0.583

---

Test system: RARa:RXR (NR concentration 270 nM, RXRa partner concentration 90 nM)
Assay: PBM binding z-score (relative to random genomic background probes); higher = stronger binding; sequences stand for … in GC…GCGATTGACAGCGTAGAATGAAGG
Each entry belongs to exactly one class, chosen by where its PBM binding z-score falls: low bin = under 1, mid bin = from 1 up to 3, high bin = 3 and over

>>> class("TAGACTAGGTCATTCAGGGGCCAGTATAGAAAGC")
"high bin"
>>> class("GCTATGAGTTGAAAGGGCAACCGAATGATTCTCG")
"mid bin"
>>> class("TATACAGGGTCGAAGGCCAGAGTACGAATGTCGA")
"mid bin"

q: Which category fits this record: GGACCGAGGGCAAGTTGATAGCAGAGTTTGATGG
a: low bin

q: Which category fits this record: CCGACTGGGGCAGAAAGGTTATCATACCATCCGG
a: mid bin

q: Which category fits this record: CCAACTGGGCCATTCAGAGGTCATTGATCATATG
a: high bin

q: Which category fits this record: GCATATAGGTAATACAAGGTGAAAGTACGATTGT
a: mid bin

q: Which category fits this record: TCATATAGGTAAATGCTAGGCGAAAGTCCGATCT
a: low bin

q: Which category fits this record: GCTTACGGGACAAAGGTTATAGCATGAATAGAAT
a: mid bin

q: Which category fits this record: ATCTCTAGGGAAAGTTCAGTGAAAGATCGATAGA
a: mid bin

q: Which category fits this record: CGTCAAAGTTCAAATAAGGTAACGTAAAGCACGC
a: high bin

q: Which category fits this record: CGTCAAAGTTCAACTAAGGTGACGTAAAGCACGC
a: high bin

q: Which category fits this record: CGTCCAAGGTCAAAGGTAAGTGAAGAGATGACGG
a: high bin

q: Which category fits this record: ACTCGGAGGACAAAGGTCAGAGGTACGCCAGTGA
a: high bin

q: Which category fits this record: CCTAGCATGCCAGGGTCACTCAAGCATTTCGCTT
a: high bin

---

Test system: PPARg:RXRa IVT, anti-PPARg (NR concentration 270 nM, RXRa partner concentration 90 nM)
Test: PBM binding z-score (relative to random genomic background probes); higher = stronger binding; sequences stand for … in GC…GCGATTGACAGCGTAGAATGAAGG
recorded-metric: PBM binding z-score
The answer should be a number; do not append a unit.

>>> val("GATACAGGATCAAGGCCAGAGTACGCGTATTGAT")
-0.0749
>>> val("TCATATAGGTAAAGGTAAAAGTCGAACGATATGA")
3.36
>>> val("CCAGACAGGTGAGAAGGTAACTCTGCCTCGATTA")
0.644
>>> val("TCAGACAGGTCAAGGTAACTCAGGTACGCAGTCG")
2.73
>>> val("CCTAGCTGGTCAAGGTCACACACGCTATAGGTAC")
2.8
>>> val("AGAATGAGGGTATACGTAGATCAGGGAAGAAAGT")
0.629
>>> val("AGTCAAAGTTCAGCTAGGTAACGTAAGATATGCT")
2.1
>>> val("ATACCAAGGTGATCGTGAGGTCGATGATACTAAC")
1.52

Memo: CTCGAAAGGTAGTGCTCAGGTGAGTATACCAAAC , reported PBM binding z-score: -0.0512

Memo: ACTATCAGGCCAAGTTTGGGTCACTCAAACAAAG , reported PBM binding z-score: 1.51

Memo: CCTACTGGGCCAAGTTCATTGATCAGTCAAAGCA , reported PBM binding z-score: 3.54

Memo: CTCGAAAGGTCGGTTGAGGTGAGTCTACGGATAA , reported PBM binding z-score: 0.948

---

Test system: RARa:RXR (NR concentration 270 nM, RXRa partner concentration 90 nM)
Test: PBM binding z-score (relative to random genomic background probes); higher = stronger binding; sequences stand for … in GC…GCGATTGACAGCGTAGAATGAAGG
recorded-metric: PBM binding z-score
The answer should be a number; do not append a unit.

// below: answered sequences
>>> val("AGAACGAGGGCAATTAGTTGATAGCACGGGTGGC")
0.412
>>> val("AGAACGAGGGCACGCTGAGTTGATTGCAGAGTAG")
0.717
>>> val("TGTCAAAGTTCAAAGGTAACGAAAGTATCCACAC")
6.83
>>> val("ATCTCTAGGTAAAGTGCAGTGAAAGATCGATAGA")
0.372
>>> val("CAAACTATGTCAAGAGGTCAAAGTCCGCTTCCCG")
6.21

Memo: ACAGACAGGTGAGTGAAGGTACCTCAGCTGGACG , reported PBM binding z-score: -0.657

Memo: TAGCCTAGGTCATGGGCTAGTATACCACGCGAAC , reported PBM binding z-score: 2.74

Memo: GCAGACAGGTGAAACGCAGGTATCTCAGGGTGGC , reported PBM binding z-score: 0.112

Memo: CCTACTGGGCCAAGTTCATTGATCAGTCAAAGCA , reported PBM binding z-score: 0.935

Memo: CGTCCAAGGTCAGAGAGGTCAGTAAATGCCGAGT , reported PBM binding z-score: 5.41

Memo: GGAACGAGGGCAAGTTGATATCAGAGTTTGATGG , reported PBM binding z-score: 0.687

---

Test system: PXR homodimer (NR concentration 270 nM)
Assay: PBM binding z-score (relative to random genomic background probes); higher = stronger binding; sequences stand for … in GC…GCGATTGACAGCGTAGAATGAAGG
recorded-metric: PBM binding z-score

>>> val("TCTATTAGTTGAATAGGGCAACCGAAACAGCGGA")
0.0472
>>> val("CCTTACGGGTCAAGAGGTTATAGCACGACGAGCG")
0.116
>>> val("TCTGCTAGGTCTACGATGGTCAGCTAATCTGCTA")
-1.3
>>> val("TCTTGTAGATCAGCAGGGTAAGAAAGCTGGCCAA")
-0.245
>>> val("CTCGAAAGGTCGGTTGAGGGGAGTATACGGATAA")
-0.0252

Now examine the next entry.
Memo: GCAACTGGGGCATCAGCAGGTTACCATAACTTAA , reported PBM binding z-score: -0.0956
